System: Ruminococcus gnavus DSM 108212
PROCEDURE_TEXT: fold change of Tryptamine concentration vs plate DMSO controls (fold change (ratio)); higher = more amine produced, active = hit call of the paper (significant change in both replicates, either direction)
APPLIED_CONDITIONS: incubation time: 27 h, anaerobic, 37 °C
Where a name gives a salt, the structure may show the parent alone.
ASSAY_METRIC: fold change of Tryptamine concentration

Examples with their reported fold change of Tryptamine concentration follow.
{"columns": ["COMPOUND", "TEST_VALUE"],
 "data": [
  ["O=C(O)CCC(=O)Nc1ccc(S(=O)(=O)Nc2nccs2)cc1 [Succinylsulfathiazole] (20 µM)", "1.02 (inactive)"],
  ["c1ccc2c(c1)-c1cccc3c1c-2cc1ccccc13 [Benzo[b]fluoranthene] (20 µM)", "1.02 (inactive)"],
  ["CCOc1ccc2nc3cc(N)ccc3c(N)c2c1 [Ethacridine lactate] (20 µM)", "0.856 (inactive)"]
]}

[ask] Using the record for OC(CCN1CCCCC1)(c1ccccc1)C1CCCCC1 (stereo unspecified) [Trihexyphenidyl-D,L hydrochloride] (20 µM) , report its fold change of Tryptamine concentration.
[reply] 0.874 (inactive)

[ask] Look up fold change of Tryptamine concentration for this compound: O=S(=O)([O-])NC1CCCCC1.[Na+] [Sodium cyclamate] (50 µM)
[reply] 1.01 (inactive)

[ask] For the compound shown here, Cc1c(O)cccc1C(=O)N[C@@H](CSc1ccccc1)[C@H](O)CN1C[C@H]2CCCC[C@H]2C[C@H]1C(=O)NC(C)(C)C [Nelfinavir mesylate] (20 µM) , give the reported fold change of Tryptamine concentration.
[reply] 0.829 (inactive)

---

Test system: Klebsiella aerogenes DSM 30053
PROCEDURE_TEXT: fold change of Putrescine concentration vs plate DMSO controls (fold change (ratio)); higher = more amine produced, active = hit call of the paper (significant change in both replicates, either direction)
APPLIED_CONDITIONS: incubation time: 27 h, anaerobic, 37 °C
Counter-ions that a name gives are not always drawn.
ASSAY_METRIC: fold change of Putrescine concentration
# output: bare number, no unit

Some solved entries appear below for comparison.
{"columns": ["COMPOUND", "ASSAY_METRIC", "TEST_VALUE"],
 "data": [
  ["C[C@H]1[C@H](NC(=O)/C(=N\\OC(C)(C)C(=O)O)c2csc(N)n2)C(=O)N1S(=O)(=O)O [Aztreonam] (20 µM)", "fold change of Putrescine concentration", 1.13],
  ["O=c1oc2ccccc2c(O)c1Cc1c(O)c2ccccc2oc1=O [Dicumarol] (20 µM)", "fold change of Putrescine concentration", 1],
  ["CCCCNc1cc(C(=O)O)cc(S(N)(=O)=O)c1Oc1ccccc1 [Bumetanide] (20 µM)", "fold change of Putrescine concentration", 1.02]
]}

Moving on to the next compound.
[ask] // lookup fold change of Putrescine concentration for C1CCC(C(CC2CCCCN2)C2CCCCC2)CC1 (centres undefined) [Perhexiline maleate] (20 µM)
[reply] 1.01

---

Test system: Escherichia coli IAI1
PROCEDURE_TEXT: fold change of Putrescine concentration vs plate DMSO controls (fold change (ratio)); higher = more amine produced, active = hit call of the paper (significant change in both replicates, either direction)
APPLIED_CONDITIONS: incubation time: 27 h, anaerobic, 37 °C
Where a name gives a salt, the structure may show the parent alone.
# fold change of Putrescine concentration >= 1 gives class 1, anything below gives class 0

{"columns": ["COMPOUND", "LABEL"],
 "data": [
  ["CC(NCCC(c1ccccc1)c1ccccc1)c1ccccc1 (stereo not drawn) [Fendiline hydrochloride] (20 µM)", "class 1"]
]}

Turning to the following compound.
[ask] Does CN1C(=O)CC(c2ccccc2)C1=O (stereo not drawn) [Phensuximide] (20 µM) have a reported fold change of Putrescine concentration of at least 1?
[reply] class 1

---

Tested on: Escherichia coli IAI1
PROCEDURE_TEXT: fold change of Putrescine concentration vs plate DMSO controls (fold change (ratio)); higher = more amine produced, active = hit call of the paper (significant change in both replicates, either direction)
APPLIED_CONDITIONS: incubation time: 27 h, anaerobic, 37 °C
Where a name gives a salt, the structure may show the parent alone.
ASSAY_METRIC: fold change of Putrescine concentration
Please reply with the value in numeric form only.

Worked examples, 10 compounds total:
{"columns": ["COMPOUND", "SUBJECT_OF_TEST", "fold change of Putrescine concentration"],
 "data": [
  ["CCCCOc1ccc(CC(=O)NO)cc1 [Bufexamac] (20 µM)", "Escherichia coli IAI1", 0.929],
  ["Cc1cc(C2CCCCC2)n(O)c(=O)c1 [Ciclopirox ethanolamine] (20 µM)", "Escherichia coli IAI1", 1.06],
  ["Clc1ccc(C(Cn2ccnc2)OCc2c(Cl)cccc2Cl)c(Cl)c1 (stereo unspecified) [Isoconazole] (20 µM)", "Escherichia coli IAI1", 1.01],
  ["COc1c(O[C@@H]2O[C@H](CO)[C@@H](O)[C@H](O)[C@H]2O)cc2c(c1OC)-c1ccc(SC)c(=O)cc1[C@@H](NC(C)=O)CC2 [Thiocolchicoside] (20 µM)", "Escherichia coli IAI1", 1.01],
  ["COc1cc2c(cc1OC)C(=O)C(CC1CCN(Cc3ccccc3)CC1)C2 (stereo unspecified) [Donepezil hydrochloride] (20 µM)", "Escherichia coli IAI1", 1.24],
  ["COc1ccccc1O [Guaiacol] (20 µM)", "Escherichia coli IAI1", 0.994],
  ["CCC(=O)[C@@]1(C)[C@H](C)C[C@H]2[C@@H]3CCC4=CC(=O)C=C[C@]4(C)[C@H]3[C@@H](O)C[C@@]21C [Rimexolone] (20 µM)", "Escherichia coli IAI1", 0.983],
  ["NC(=O)OCC(O)COc1ccc(Cl)cc1 (stereo unspecified) [Chlorphensin carbamate] (20 µM)", "Escherichia coli IAI1", 1],
  ["CCCc1cc(=O)[nH]c(=S)[nH]1 [Propylthiouracil] (20 µM)", "Escherichia coli IAI1", 1.05],
  ["CCN(CC)C(=O)Nc1ccc(OCC(O)CNC(C)(C)C)c(C(C)=O)c1 (stereo unspecified) [Celiprolol hydrochloride] (20 µM)", "Escherichia coli IAI1", 1]
]}

Now turn to the next compound.
[ask] So what does the record say about fold change of Putrescine concentration for CN1CCN(CCCN2c3ccccc3Sc3ccc(Cl)cc32)CC1 [Prochlorperazine dimaleate] (20 µM) ?
[reply] 0.974

---

Tested on: Escherichia coli IAI1
PROCEDURE_TEXT: growth (OD595) fold change vs plate DMSO controls (fold change (ratio)); higher = more growth
APPLIED_CONDITIONS: incubation time: 27 h, anaerobic, 37 °C
ASSAY_METRIC: growth
Answer with a bare number; do not write a unit.

{"columns": ["COMPOUND", "growth"],
 "data": [
  ["NCCCC(O)(P(=O)(O)O)P(=O)(O)O [Alendronate sodium] (20 µM)", 1.04]
]}

We now examine a further compound.
[ask] Data request, read-out growth, for C[C@]12C=CC(=O)C=C1CC[C@H]1[C@@H]3C[C@@H](O)[C@](O)(C(=O)CO)[C@@]3(C)C[C@H](O)[C@@]12F [Triamcinolone] (20 µM)
[reply] 0.986

---

// fold change of 2-Phenylethylamine concentration lookup, one value per entry
System: Ruminococcus gnavus DSM 108212
PROCEDURE_TEXT: fold change of 2-Phenylethylamine concentration vs plate DMSO controls (fold change (ratio)); higher = more amine produced, active = hit call of the paper (significant change in both replicates, either direction)
APPLIED_CONDITIONS: incubation time: 27 h, anaerobic, 37 °C
Counter-ions that a name gives are not always drawn.
Format: numeric value only, no unit, no commentary.

{"columns": ["COMPOUND", "TEST_VALUE"],
 "data": [
  ["OC[C@H]1O[C@@](CO)(OC[C@@]2(OC[C@@]3(O[C@H]4O[C@H](CO)[C@@H](O)[C@H](O)[C@H]4O)O[C@H](CO)[C@@H](O)[C@@H]3O)O[C@H](CO)[C@@H](O)[C@@H]2O)[C@@H](O)[C@@H]1O [Nystose] (50 µM)", 0.994]
]}

[ask] Which fold change of 2-Phenylethylamine concentration is reported for this compound? C=CCSCC1Nc2cc(Cl)c(S(N)(=O)=O)cc2S(=O)(=O)N1 (stereo not drawn) [Althiazide] (20 µM)
[reply] 1.66

[ask] Which fold change of 2-Phenylethylamine concentration is reported for this compound? Cc1ncc(CO)c(CO)c1O [Pyridoxine hydrochloride] (20 µM)
[reply] 1.01

---

Tested on: Ruminococcus gnavus DSM 108212
PROCEDURE_TEXT: fold change of 2-Phenylethylamine concentration vs plate DMSO controls (fold change (ratio)); higher = more amine produced, active = hit call of the paper (significant change in both replicates, either direction);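 for the amine columns active = adjusted P below 0.05 in both replicates with a change the same way and a mean fold change under 0.8 or over 1.25; inactive = the rest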
APPLIED_CONDITIONS: incubation time: 27 h, anaerobic, 37 °C
Counter-ions that a name gives are not always drawn.
Classes to choose from: active, inactive

Take a look at these entries with their results.
{"columns": ["COMPOUND", "LABEL"],
 "data": [
  ["CC(C)CN(C[C@@H](O)[C@H](Cc1ccccc1)NC(=O)O[C@H]1CCOC1)S(=O)(=O)c1ccc(N)cc1 [Amprenavir] (20 µM)", "inactive"],
  ["O=C1CN(/N=C/c2ccc([N+](=O)[O-])o2)C(=O)N1 [Nitrofurantoin] (20 µM)", "inactive"],
  ["C=C(NC(=O)C(=C)NC(=O)c1csc(C2=N[C@@H]3c4csc(n4)[C@H]4NC(=O)c5csc(n5)[C@H]([C@](C)(O)[C@@H](C)O)NC(=O)[C@H]5CSC(=N5)/C(=C/C)NC(=O)[C@H]([C@@H](C)O)NC(=O)c5csc(n5)[C@]3(CC2)NC(=O)[C@H](C)NC(=O)C(=C)NC(=O)[C@H](C)NC(=O)[C@H]([C@@H](C)CC)N[C@@H]2C=Cc3c([C@H](C)O)cc(nc3[C@H]2O)C(=O)O[C@@H]4C)n1)C(N)=O [Thiostrepton] (20 µM)", "active"]
]}

[ask] Query: recorded result category for COc1cc2nc(N(C)CCCNC(=O)C3CCCO3)nc(N)c2cc1OC (stereo not given) [Alfuzosin hydrochloride] (20 µM) in this test
[reply] inactive

[ask] I would be grateful if you could indicate the recorded call for CC(C)(C(=O)O)c1ccc(C(O)CCCN2CCC(C(O)(c3ccccc3)c3ccccc3)CC2)cc1 (stereo not given) [Fexofenadine hydrochloride] (20 µM) .
[reply] inactive

Each recorded value in this set is attributed to the supplement of paper PMC12494721.
